# MEASUREMENT_DESCRIPTION: Cytotoxicity against human HEK293 cells assessed as reduction in cell viability measured after 48 hrs by AlamarBlue assay
# Format: cell-based
# CONDITIONS: HEK293 cells
MEASURE_NAME: CC50 at 48 h (µM)
Numbers only, in µM.

• O=S(=O)(Nc1ccc(-c2nc3cc(NS(=O)(=O)c4ccc(Br)cc4)ccc3o2)cc1)c1ccc(Br)cc1 = 22

Count: 5. Required value per item: CC50 at 48 h.
1. O=S(=O)(Nc1ccc(-c2nc3cc(NS(=O)(=O)c4ccccc4)ccc3o2)cc1)c1ccccc1
2. O=S(=O)(Nc1ccc(-c2nc3cc(NS(=O)(=O)c4ccc(Cl)s4)ccc3o2)cc1)c1ccc(Cl)s1
3. O=C(Nc1ccc(Sc2nc3ccccc3s2)cc1)c1cccc(Br)c1O
4. Cc1ccc(S(=O)(=O)Nc2ccc(-c3nc4ccc(NS(=O)(=O)c5ccc(C)cc5)cc4[nH]3)cc2)cc1
5. O=C(Nc1ccc(Sc2nc3ccccc3s2)c(Cl)c1)c1cccc(Br)c1O

Result:
1: 25; 2: 41; 3: 33; 4: 38; 5: 68

Give one value of CC50 at 48 h per listed compound.
1. COc1c(Br)cccc1C(=O)Nc1ccc(Sc2nc3ccccc3s2)c(Cl)c1
2. COc1ccccc1S(=O)(=O)Nc1ccc(-c2nc3cc(NS(=O)(=O)c4ccccc4OC)ccc3o2)cc1

Result:
1: 40; 2: 28
